- System: HT-29
- Assay text: Antiproliferative activity against human HT-29 cells measured after 72 hrs by MTT assay
- Condition: HT-29, 72 h
pIC50: −log10 of the molar value.
# binarize pIC50: threshold 6 inclusive, high side 1 (yes), low side 0 (no)

>  <Compound>
COc1cc2c(Oc3ccc(NC(=O)c4ncc(-c5ccc(F)cc5)o4)cc3)ccnc2cc1OCCCN1CCC(C)CC1

>  <Category label>
0 (no)

$$$$
>  <Compound>
COc1cc2nccc(Oc3ccc(NC(=O)c4nc(-c5ccc(F)cc5)no4)cc3)c2cc1OC

>  <Category label>
0 (no)

$$$$
>  <Compound>
CCC(C(=O)Nc1ccc(Oc2ccnc3cc(OCCCN4CCC(C)CC4)c(OC)cc23)c(F)c1)c1nnc(-c2ccc(F)cc2)o1 (configuration not stated)

>  <Category label>
1 (yes)

$$$$
>  <Compound>
COc1cc2c(Oc3ccc(NC(=O)Cc4ncc(-c5ccc(F)cc5)o4)cc3F)ccnc2cc1OCCCN1CCCC1

>  <Category label>
0 (no)

$$$$
>  <Compound>
COc1cc2c(Oc3ccc(NC(=O)C(C)c4nnc(-c5ccc(F)cc5)o4)cc3F)ccnc2cc1OCCCN1CCN(C)CC1 (configuration not stated)

>  <Category label>
0 (no)

$$$$
>  <Compound>
COc1cc2c(Oc3ccc(NC(=O)Cc4ncc(-c5ccc(F)cc5)o4)cc3F)ccnc2cc1OCCCN1CCOCC1

>  <Category label>
0 (no)

$$$$
>  <Compound>
COc1cc2c(Oc3ccc(NC(=O)Cc4nnc(-c5ccc(F)cc5)o4)cc3F)ccnc2cc1OCCCN1CCC(C)CC1

>  <Category label>
1 (yes)

$$$$
